Each entry below carries its measured MIC90, system: Salmonella spp. (20).

{"compoundStructureString": "CC[C@H]1OC(=O)[C@H](C)[C@@H](O[C@H]2C[C@@](C)(OC)[C@@H](O)[C@H](C)O2)[C@H](C)[C@@H](O[C@@H]2O[C@H](C)C[C@H](N(C)C)[C@H]2O)[C@](C)(O)C[C@@H](C)CN(C)[C@H](C)[C@@H](O)[C@]1(C)O", "tgt": "Salmonella spp. (20)", "MIC90": "8 µg/mL"}

Requested read-out: MIC90. Entry: C=CC1=C(C(=O)O)N2C(=O)[C@@H](NC(=O)/C(=N\O)c3csc(N)n3)[C@H]2SC1 0.5 µg/mL

Fill in: MIC90 of CC[C@H]1OC(=O)[C@H](C)C(=O)[C@H](C)[C@@H](O[C@@H]2O[C@H](C)C[C@H](N(C)C)[C@H]2O)[C@](C)(OC)C[C@@H](C)C(=O)[C@H](C)[C@H]2N(CCCCn3cnc(-c4cccnc4)c3)C(=O)O[C@]12C is ___ > 16 µg/mL

Could you share which MIC90 value was measured for CC[C@H]1OC(=O)[C@H](C)[C@@H](O[C@H]2C[C@@](C)(OC)[C@@H](O)[C@H](C)O2)[C@H](C)[C@@H](O[C@@H]2O[C@H](C)C[C@H](N(C)C)[C@H]2O)[C@](C)(O)C[C@@H](C)C(=O)[C@H](C)[C@@H](O)[C@]1(C)O ? > 4 µg/mL

Look up MIC90 for this compound: CC[C@H]1OC(=O)[C@H](C)[C@@H](O[C@H]2C[C@@](C)(OC)[C@@H](O)[C@H](C)O2)[C@H](C)[C@@H](O[C@@H]2O[C@H](C)C[C@H](N(C)C)[C@H]2O)[C@](C)(OC)C[C@@H](C)C(=O)[C@H](C)[C@@H](O)[C@]1(C)O > 16 µg/mL

Tell me the measured MIC90 of C[C@H]1COc2c(N3CCN(C)CC3)c(F)cc3c(=O)c(C(=O)O)cn1c23 , please. 1 µg/mL

====

Test system: intraphagocytic L. pneumophila ATCC 33153
Type: cell-based, Legionella pneumophila
conditionDetails: L.p., intracellular
Each entry below lists one item and its recorded Emax, Δ log10 CFU at 24 h compared to the post-phagocytosis inoculum value.

Requested read-out: Emax, Δ log10 CFU at 24 h compared to the post-phagocytosis inoculum. Entry: CC[C@H]1OC(=O)[C@H](C)C(=O)[C@H](C)[C@@H](O[C@@H]2O[C@H](C)C[C@H](N(C)C)[C@H]2O)[C@](C)(OC)C[C@@H](C)C(=O)[C@H](C)[C@H]2N(CCCCn3cnc(-c4cccnc4)c3)C(=O)O[C@]12C −0.63 Δ log10 CFU

====

System: Shigella spp. (40)
assayDetails: MIC, CLSI broth microdilution
Assay type: cell-based
conditionDetails: Shigella spp., 40 strains
quantityName: MIC50 (µg/mL)
Number in µg/mL, nothing else.

Look up MIC50: CC[C@H]1OC(=O)[C@H](C)[C@@H](O[C@H]2C[C@@](C)(OC)[C@@H](O)[C@H](C)O2)[C@H](C)[C@@H](O[C@@H]2O[C@H](C)C[C@H](N(C)C)[C@H]2O)[C@](C)(O)C[C@@H](C)CN(C)[C@H](C)[C@@H](O)[C@]1(C)O 4

====

Reported MIC50 is given for each of the following compounds.
System: Shigella spp. (40)
assayDetails: MIC, CLSI broth microdilution
Type: cell-based
conditionDetails: Shigella spp., 40 strains
Express it in µg/mL; write the number only.

{"compound": "C=CC1=C(C(=O)O)N2C(=O)[C@@H](NC(=O)/C(=N\\O)c3csc(N)n3)[C@H]2SC1 [Cefdinir]", "valueUnit": "µg/mL", "MIC50": 0.25}

# context switch: different compound, same MIC50
Would you mind telling me what MIC50 value was observed for CC[C@H]1OC(=O)[C@H](C)C(=O)[C@H](C)[C@@H](O[C@@H]2O[C@H](C)C[C@H](N(C)C)[C@H]2O)[C@](C)(OC)C[C@@H](C)C(=O)[C@H](C)[C@H]2N(CCCCn3cnc(-c4cccnc4)c3)C(=O)O[C@]12C [TEL, telithromycin] ? 16

====

System: intraphagocytic L. pneumophila ATCC 33153
Assay type: cell-based, Legionella pneumophila
conditionDetails: L.p., intracellular
quantityName: Emax, Δ log10 CFU at 24 h compared to the post-phagocytosis inoculum

{"compound": "CC[C@H]1OC(=O)[C@H](C)[C@@H](O[C@H]2C[C@@](C)(OC)[C@@H](O)[C@H](C)O2)[C@H](C)[C@@H](O[C@@H]2O[C@H](C)C[C@H](N(C)C)[C@H]2O)[C@](C)(O)C[C@@H](C)CN(C)[C@H](C)[C@@H](O)[C@]1(C)O [AZI, azithromycin]", "result": "−0.83 Δ log10 CFU"}
{"compound": "CC[C@H]1OC(=O)[C@H](C)[C@@H](O[C@H]2C[C@@](C)(OC)[C@@H](O)[C@H](C)O2)[C@H](C)[C@@H](O[C@@H]2O[C@H](C)C[C@H](N(C)C)[C@H]2O)[C@](C)(OC)C[C@@H](C)C(=O)[C@H](C)[C@@H](O)[C@]1(C)O [CLR, clarithromycin]", "result": "−0.71 Δ log10 CFU"}

Recorded Emax, Δ log10 CFU at 24 h compared to the post-phagocytosis inoculum for CC[C@H]1OC(=O)[C@@](C)(F)C(=O)[C@H](C)[C@@H](OC2OC(C)CC(N(C)C)C2O)[C@@](C)(OC)C[C@@H](C)C(=O)[C@H](C)[C@H]2N(CCCCn3cc(-c4cccc(N)c4)nn3)C(=O)O[C@]12C (stereo partly drawn) [CEM-101] , please? −1.03 Δ log10 CFU

====

Test system: Shigella spp. (40)
assayDetails: MIC, CLSI broth microdilution
Format: cell-based
conditionDetails: Shigella spp., 40 strains
quantityName: MIC50

{"compound": "C[C@H]1COc2c(N3CCN(C)CC3)c(F)cc3c(=O)c(C(=O)O)cn1c23 [Levofloxacin, levofloxacin]", "MIC50": "≤ 0.12 µg/mL"}
{"compound": "CCC[C@@H]1C[C@@H](C(=O)N[C@@H]([C@H]2O[C@H](SC)[C@H](O)[C@@H](O)[C@H]2O)[C@H](C)Cl)N(C)C1 [Clindamycin]", "MIC50": "> 4 µg/mL"}

May I ask what MIC50 has been recorded for CC[C@H]1OC(=O)[C@H](C)[C@@H](O[C@H]2C[C@@](C)(OC)[C@@H](O)[C@H](C)O2)[C@H](C)[C@@H](O[C@@H]2O[C@H](C)C[C@H](N(C)C)[C@H]2O)[C@](C)(OC)C[C@@H](C)C(=O)[C@H](C)[C@@H](O)[C@]1(C)O [CLR, clarithromycin] ? > 16 µg/mL

Data credit: patent US9439918B2
